Recorded values, source patent US8034937B2.

measured-target: human V1a receptor (Homo sapiens)
Construct: expressed in transfected cells; host or cells: HEK293 cells, transiently transfected; membranes prepared
Sequence (P37288 whole entry): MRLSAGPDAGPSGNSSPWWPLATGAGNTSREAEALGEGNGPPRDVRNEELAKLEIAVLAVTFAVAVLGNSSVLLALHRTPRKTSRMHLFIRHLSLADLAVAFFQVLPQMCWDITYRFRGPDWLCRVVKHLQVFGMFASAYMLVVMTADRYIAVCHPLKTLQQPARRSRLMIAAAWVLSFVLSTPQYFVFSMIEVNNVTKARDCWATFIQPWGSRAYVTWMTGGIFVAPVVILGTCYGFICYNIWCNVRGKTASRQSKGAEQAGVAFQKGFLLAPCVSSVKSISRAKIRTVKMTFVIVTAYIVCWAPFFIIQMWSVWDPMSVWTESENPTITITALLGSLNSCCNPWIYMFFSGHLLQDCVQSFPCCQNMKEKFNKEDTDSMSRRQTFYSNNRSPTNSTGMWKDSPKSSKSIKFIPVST
test-protocol: human V1a receptor binding (3H-Vasopressin SPA, HEK293 membranes)
measurement-setup: 3H-Vasopressin displacement, membranes of HEK293 cells transiently transfected with human V1a; Ki by Cheng-Prussoff; read-out: pKi (hV1a) (converted)
Reported log10 of Ki values for a set of molecules
outcome-measure: log10 of Ki (log10 of the value in nM)

{"molecule-smiles": "CC(C)(C)OC(=O)N1CCC[C@H]1Cn1cc(C(=O)N2CCC3(CC2)OCc2cccnc23)c2ccc(Cl)cc21", "log10 of Ki": 1.36}
{"molecule-smiles": "O=C(c1c[nH]c2cc(Cl)ccc12)N1CCC2(CC1)OCc1ccncc12", "log10 of Ki": 0.94}
{"molecule-smiles": "CC(C)(C)OC(=O)N1CCC[C@H]1Cn1cc(C(=O)N2CCC3(CC2)OCc2ccncc23)c2ccc(Cl)cc21", "log10 of Ki": 1.37}
{"molecule-smiles": "O=C(c1cn(C[C@@H]2CCCN2)c2cc(Cl)ccc12)N1CCC2(CC1)OCc1ncccc12", "log10 of Ki": 1.40}
{"molecule-smiles": "CN1CCC[C@H]1Cn1cc(C(=O)N2CCC3(CC2)OCc2ccncc23)c2ccc(Cl)cc21", "log10 of Ki": 0.04}
{"molecule-smiles": "CN1CCC[C@H]1Cn1cc(C(=O)N2CCC3(CC2)OCc2ncccc23)c2ccc(Cl)cc21", "log10 of Ki": 0.19}
{"molecule-smiles": "CN1CCC[C@H]1Cn1cc(C(=O)N2CCC3(CC2)OCc2cccnc23)c2ccc(Cl)cc21", "log10 of Ki": 0.00}
{"molecule-smiles": "O=C(c1cn(C[C@@H]2CCCN2)c2cc(Cl)ccc12)N1CCC2(CC1)OCc1cccnc12", "log10 of Ki": 0.52}
{"molecule-smiles": "O=C(c1cn(Cc2cc(F)cc(F)c2)c2cc(Cl)ccc12)N1CCC2(CC1)OCc1cccnc12", "log10 of Ki": 0.63}
{"molecule-smiles": "O=C(c1c[nH]c2cc(Cl)ccc12)N1CCC2(CC1)OCc1cccnc12", "log10 of Ki": 0.72}
{"molecule-smiles": "O=C(c1cn(C[C@@H]2CCCN2)c2cc(Cl)ccc12)N1CCC2(CC1)OCc1ccncc12", "log10 of Ki": 0.66}
{"molecule-smiles": "O=C(c1cn(Cc2cc(F)cc(F)c2)c2cc(Cl)ccc12)N1CCC2(CC1)OCc1ncccc12", "log10 of Ki": 0.64}
